These entries and their values trace back to PubChem BioAssay (NCI).

Tested on: HT29 colon
ASSAY OVERVIEW: NCI-60 one-dose screen, 48 h
TEST CONTEXT: 10 µM unless noted
This is part of a sample that, as a whole, favours compounds with a hit. Of some 83,000 tested, about 20% had one in any assay. The source made the active and inactive calls. The calls were made as follows: active = growth percent below 10; inactive = the rest.
Thanks in advance; please answer with one of these: active, inactive

>  <COMPOUND>
O=C(Cc1ccc([N+](=O)[O-])cc1)Oc1ccccc1

>  <CLASS LABEL>
inactive

$$$$

Outcome logged for CC(NC(=O)c1ccccc1)C(=O)Nc1ccccc1 (stereo unspecified) in this assay:
inactive

Outcome logged for CO[C@H](C(=O)[C@@H](O)[C@@H](C)O)[C@@H]1Cc2cc3cc(O[C@H]4C[C@@H](O[C@H]5C[C@@H](O)[C@H](O)C(C)O5)[C@H](O)C(C)O4)c(C)c(O)c3c(O)c2C(=O)[C@H]1O[C@H]1C[C@@H](O[C@H]2C[C@@H](O[C@H]3C[C@](C)(O)C(=O)C(C)O3)[C@@H](O)C(C)O2)[C@H](O)C(C)O1 (stereo partly specified) in this assay:
active

Outcome logged for CC[C@]1(O)C[C@H]2CN(CCc3c([nH]c4ccccc34)C(C(=O)OC)(c3cc4c(cc3OC)N(C)[C@H]3[C@@](O)(C(=O)OC)[C@H](OC(C)=O)[C@]5(CC)[C@@H]6C[C@@H]6CN6CC[C@]43[C@@H]65)C2)C1 (stereo partly specified) in this assay:
active

Outcome logged for Oc1c(C(Nc2cccc3ccccc23)c2ccccc2)ccc2cccnc12 (stereo unspecified) in this assay:
inactive

Outcome logged for COc1ccc(Cl)cc1Nc1nc(C(F)(F)F)ccc1C(=O)NN in this assay:
inactive
